Listing of entries alongside the reported % Intrinsic Activity, calcium flux, CEM cells (Flexstation).
# targetSystem: CXCR4 receptor (human, UniProt P61073 1-352)
# Sequence (P61073 whole entry): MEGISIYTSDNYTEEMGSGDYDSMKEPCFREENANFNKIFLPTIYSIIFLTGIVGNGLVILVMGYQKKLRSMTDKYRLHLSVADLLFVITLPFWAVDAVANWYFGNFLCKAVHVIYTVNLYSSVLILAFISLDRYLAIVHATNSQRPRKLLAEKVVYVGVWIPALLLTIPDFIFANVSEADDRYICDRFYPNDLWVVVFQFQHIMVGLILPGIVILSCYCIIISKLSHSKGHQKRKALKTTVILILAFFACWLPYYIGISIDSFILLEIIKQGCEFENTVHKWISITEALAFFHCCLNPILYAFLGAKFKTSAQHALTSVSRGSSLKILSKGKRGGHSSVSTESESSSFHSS
# assayText: cell-based or functional assay
Where no end group is shown, it is not given here. [ ]: non-standard residue; d: D form. The star is where a group is joined. Palmitoyl = CCCCCCCCCCCCCCCC(=O)*; Cit = NC(=O)NCCC[C@H](N)C(=O)O
readoutType: % Intrinsic Activity, calcium flux, CEM cells (Flexstation) (%)

- Palmitoyl-MGYQKKLRSMTDKYKL (not fully specified) [Compound No. 13 (Pal-MGYQKKLRSMTDKYKL)]: 61.4
- Pal-GGYQKKLR[dP]ATDKFRL [Compound No. 29 (Pal-GGYQKKLRpATDKFRL)]: 88.9
- Pal-MGYQKKLRSMTDKY[Cit]L [Compound No. 14 (Pal-MGYQKKLRSMTDKY(Cit)L)]: 3.61
- Palmitoyl-MGYQKKLRSMTDKYRV (not fully specified) [Compound No. 11 (Pal-MGYQKKLRSMTDKYRV)]: 61.7
- Palmitoyl-GGYQKKLRSATDKYRLH (not fully specified) [Compound No. 40 (Pal-GGYQKKLRSATDKYRLH)]: 78.7
- Pal-MGYQKKLRS[dP]MTDKYRL [Compound No. 9 (Pal-MGYQKKLRSpMTDKYRL)]: 77.9
- Pal-GGYQKK[dP]R[dP]ATDKYRL [Compound No. 28 (Pal-GGYQKKpRpATDKYRL)]: 107
